pEC50 by entry:
- TESTED_SYSTEM: T1, human GPVI-1A extracellular domain fused at its C-terminus to human IgG1 Fc (GPVI-Fc) (human)
- T1 construct: also called hGPVI-1a; hGPVI
- T1 sequence (chain, as listed by the source limits assumed): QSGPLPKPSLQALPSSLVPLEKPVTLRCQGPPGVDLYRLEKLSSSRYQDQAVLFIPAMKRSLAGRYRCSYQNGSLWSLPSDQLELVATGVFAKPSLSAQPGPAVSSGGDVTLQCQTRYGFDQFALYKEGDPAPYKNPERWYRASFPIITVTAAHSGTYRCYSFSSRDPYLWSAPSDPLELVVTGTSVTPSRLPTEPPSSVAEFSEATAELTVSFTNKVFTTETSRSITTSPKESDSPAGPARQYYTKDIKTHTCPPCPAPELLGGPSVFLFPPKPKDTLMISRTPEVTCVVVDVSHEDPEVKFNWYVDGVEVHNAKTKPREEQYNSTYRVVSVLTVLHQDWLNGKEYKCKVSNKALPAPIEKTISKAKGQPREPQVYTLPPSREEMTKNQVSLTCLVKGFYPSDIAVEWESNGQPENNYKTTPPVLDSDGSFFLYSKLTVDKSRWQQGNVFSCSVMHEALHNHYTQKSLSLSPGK
- ASSAY_PROCEDURE: ELISA, coated GPVI-Fc, Fab titrated
API: returns pEC50 as number; meaning -log10 of concentration in mol/L.

BINDER	ENDPOINT_RESULT
Fab #2 comprising a modified heavy chain constant region (Fab, V domains shown, Human Fab from the Ylanthia library; produced in HKB11 cells; also called Fab #2 mod; HC) VH: QVQLVESGGGLVKPGGSLRLSCAASGFSFSDHYMSWIRQAPGKGLEWVSSVGSEGKFIDYAASVKGRFTISRDNAKNSLYLQMNSLRAEDTAVYYCARHYREFRWHYYYFDYWGQGTLVTVSS VL: QSVLTQPPSVSGAPGQRVTISCTGSSSNIGAGYDVHWYQQLPGTAPKLLIYGNSNRPSGVPDRFSGSKSGTSASLAITGLQAEDEADYYCQSHDLGAHVWVFGGGTKLTVLG	9.39

Q: Requested field: pEC50. Item: Reference Control Antibody RefFab #1 (humanized GPVI antibody of WO2011073954A2, SANOFI) (Fab, V domains shown, Cloned into mammalian Fab expression vectors; a glycine-serine linker (G4S)2 was added to the C-terminus of the Fab heavy chain) VH: EVQLLESGPGLVAPSGSLSITCTVSGFSLTGYGVNWVRQPPGKGLEWLGMIWGDGSTDYQSTLKSRLSISKDNSKSQVFLKMNSLRTDDTARYYCARDLPMDYWGLGTSVTVSS VL: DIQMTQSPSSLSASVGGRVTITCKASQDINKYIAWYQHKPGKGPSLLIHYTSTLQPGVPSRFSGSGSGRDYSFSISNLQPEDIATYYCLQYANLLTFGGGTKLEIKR
Result: 9.03
